assay: soluble fraction after stress (log2 fold change); higher = more stays soluble; pooled small domains, quantitative proteomics; settings: stress: pH 4
Each record here notes measured soluble fraction (log2).

- RESIDUE SEQUENCE: "HMKTGAKLKNLRKMKKLSQEEVAKVLNLSYSTLSRWENDTRIPTYEDLFKLGQFYGVSVDYLSDPN"
  RECORDED ENDPOINT: "soluble fraction (log2)"
  ASSAY VALUE: -0.853

stdin: Look up soluble fraction (log2): HMADQIIEGILGKEGGYVNNPNDKGGPTRWGITQTTARAYGYSGDMKALPRDTAKAIYLSQYWT
stdout: -0.218

stdin: Look up soluble fraction (log2): HMDQESFGYFHVKYADVKQVADLVQKLNIPAVTWADERTRRLVALGSPATLQRISQVLNMVDL
stdout: -0.476

stdin: Look up soluble fraction (log2): HMPKNEHETKAIGNQTGGRVFLFLNTDNINRDYNMYISKQVKFVREISQEYYGKVAVFEDLYGNLWDLIE
stdout: -0.222

stdin: Look up soluble fraction (log2): HMEAPMPIFWRPQFRIGHDDIDADHRYLILLINTVELVLRFPDDPRNVELALTELRRYAEDHFEREER
stdout: 0.0123

stdin: Look up soluble fraction (log2): HMNETLKQIRINALQYSEKDMATKLGLPLSEYKEIENDKPLNFTLLIRLSQAVGKTIDDLLNAQ
stdout: -0.128

stdin: Look up soluble fraction (log2): HMSMNSWFVEKERDNTRIDKFLNEQMADISRSYIQKLIKDDLVTVDLRPVKANYKVKEGDRVEVTLPEPV
stdout: -0.0679

stdin: Look up soluble fraction (log2): HMVSDTGAIEAIVAQVLADNPKLVEGYLATPEDKRGKAIGPFIGLTRKAAAGVNPQVVMDVLKKKLSEL
stdout: -0.733

----------
Each record here notes measured soluble fraction (log2).
assay: soluble fraction after stress (log2 fold change); higher = more stays soluble; pooled small domains, quantitative proteomics; details: stress: pH 4
Quick one: just the number, no unit, thanks!

- RESIDUE SEQUENCE: "HMTMKVTADILNMRSEASTNSDIVTKLKKDDELKVIEETKDDDGVTWVKVDFNGQVGFVSKEFLG"
  soluble fraction (log2): -0.623
- RESIDUE SEQUENCE: "HMKGTSIELIVPQDIAGLRLDQVLAKLLPQWSRSRLQSWINEKHITVNGQTTTAKQKLWGNETIQIIPPI"
  soluble fraction (log2): -0.0718
- RESIDUE SEQUENCE: "HMLFKGDTREENVILEFLSKNGTTSSDAIIKQTGLSASEFNQAITMLELKGLALNNGGEKWSL"
  soluble fraction (log2): -0.0366

Could you now consider this next sequence?
stdin: Look up soluble fraction (log2): HMITLYIHNLEEVGKRLDHYLVSNLDDHSRSQIQSWIRSGSILVNDRSVKTGYSLELNDQILINPPK
stdout: -0.15

----------
Each record here notes measured soluble fraction (log2).
test: soluble fraction after stress (log2 fold change); higher = more stays soluble; pooled small domains, quantitative proteomics; conditions: stress: pH 4
Quick one: just the number, no unit, thanks!

Use these answered entries as a reference point.
- RESIDUE SEQUENCE: "HMATESYYVLKADVPAKTLVTQEMVEEIKVSKGGAPVNSIKIDNIKEKGVYTSIPLLKGDVLSASNTG"
  soluble fraction (log2): -0.358
- RESIDUE SEQUENCE: "HMNVNALIGQEGIVIKEINSGSNKIGQVKISGDTWSAVTTNDFTNAIPVGSNVKILKIDGVNLIVEPVY"
  soluble fraction (log2): 0.207
- RESIDUE SEQUENCE: "HMAQSTALVNLAQAEINKRGLTQTEVQARLSEEGINVNSISPAEYPKYQKQILSILDQMQKEKQLSKEV"
  soluble fraction (log2): 0.359

Could you now consider this next sequence?
stdin: Look up soluble fraction (log2): HMEPAPELTPREQQVLARIALGMTDKAIAEELGVSHQTVRNHVARIYQKIKVHSRSQAVVWAREKGI
stdout: 0.0801

----------
Each record here notes measured soluble fraction (log2).
experiment: soluble fraction after stress (log2 fold change); higher = more stays soluble; pooled small domains, quantitative proteomics; conditions: stress: pH 4
Quick one: just the number, no unit, thanks!

Use these answered entries as a reference point.
- RESIDUE SEQUENCE: "HMQNGNLVDVYLNWRGKYYAIKMFFPNSKMPRRSDVQDQIVKVYPDARVQSFQVSKYVPGQPFL"
  ASSAY VALUE: -0.431
- RESIDUE SEQUENCE: "HMQYSIQVNKLLKAMREDVWYTANEILDLLKLKSKETLRKNYLDPAINNKLIILELPDKPTSRNQRYKI"
  ASSAY VALUE: -0.289
- RESIDUE SEQUENCE: "HMTGQLTEEELKQRQERAMSNPEIQGILSDPVMRQVLQDMSTDPKAAAEHQRNPTIMAKIQKLINAGIVQV"
  ASSAY VALUE: -0.0717
- RESIDUE SEQUENCE: "HMLINIKTNSAVNVRSGPGMGFEVVNTYPSGYILQAKEMQKDGGDNVWYKVKDGWLSANYTIDI"
  ASSAY VALUE: 0.394
- RESIDUE SEQUENCE: "HMDSILMPGVVNKELREALAILKNEGIGWADPEYASSTVTRNYVISTDPVEGIELAPGQKVRLVVSLGPKP"
  ASSAY VALUE: 0.153

stdin: Look up soluble fraction (log2): HMNVNVSFTQLRHKAEHAIQAKNWSEARNLLTLATLMRPTHRNVARRLKAVEQRNRLFRRLLLILTHRKV
stdout: -0.229

stdin: Look up soluble fraction (log2): HMNALNDLESKIFEEVVKAPEIIMNMTIREFASTVHASPTTIVRMTHKLGFSGWNELKTYLQKQKHQIS
stdout: -0.0849

stdin: Look up soluble fraction (log2): HMLSDHGLNDRQIMVIAGLMNGGTVTVRSIESQYGVSLNTARADVKMLVDAGLLTETGREVNMKVYSWSGK
stdout: -0.22

----------
experiment: soluble fraction after stress (log2 fold change); higher = more stays soluble; pooled small domains, quantitative proteomics; conditions: stress: pH 4
RECORDED ENDPOINT: soluble fraction (log2)
Quick one: just the number, no unit, thanks!

- RESIDUE SEQUENCE: "HMGNSRNDQDLQTQIIKILAEGPASSRTLIETLTIEDEAALLKTLKRLLMNKKISLTPSNLYKL"
  soluble fraction (log2): -0.66

stdin: Look up soluble fraction (log2): HMQISDDSELIKIVDNILANSQKQIDDYHNGKTNLFGFFVGQVMKETKGKANPVKVNEILKDKL
stdout: 0.102

stdin: Look up soluble fraction (log2): HMDSATDRVALKELLNTLSARERTIITLRYFSDQTQTQVAKSLGISQVQVSRLENAILQRLRKL
stdout: -0.271

stdin: Look up soluble fraction (log2): HMKIIDDIQEFAGVTKTQNTFFHIFNHLHQNGKQLILTSDRAPVMLQGMEERLLTRFKWGLVAELE
stdout: 0.158

stdin: Look up soluble fraction (log2): HMSLGSNISRLRAEKHLSQGDLAEALDVSRQSVSKWETDGSVPDLDKLVKLSRIFGVTLDELVTGTP
stdout: 0.0988

stdin: Look up soluble fraction (log2): HMDTSAHEVLSAIRSIIEDEDKRHPLSDEAITSRLSQQGYDIARRTVAKYRERLGLPVARLRRE
stdout: 0.376

stdin: Look up soluble fraction (log2): HMSNHYETLGVEQTASVDEIKKAYRRLSLQYHPDRNTTSDAVGKFQKINDAHEILSDKQSRTEYDMQLK
stdout: 0.0857

stdin: Look up soluble fraction (log2): HMGAQPLIEPLSERELEVLALIAEGLTNAEIGRRLFIATGTVKRHVNTIYGKLDVHGRIEAIARARDLHLI
stdout: -0.66

----------
assay: soluble fraction after stress (log2 fold change); higher = more stays soluble; pooled small domains, quantitative proteomics; settings: stress: pH 4
soluble fraction (log2) of -0.1 or higher: 1 (yes). Under -0.1: 0 (no).

- RESIDUE SEQUENCE: "HMGSDQEAAMARQDRLSTLVDYVVERGSVHVDDIVADLGVSPATVRRDLDALAAQQLIIRTRGGATANHT"
  ASSIGNED LABEL: "0 (no)"

stdin: Test whether the sequence HMSQRINLNSASIEDMQSLDISNEKIDSIIDYRNRYGNIHNIYELLKIPGITIGDIHSIRNAVTVEIPH records soluble fraction (log2) of -0.1 or higher.
stdout: 0 (no)

stdin: Test whether the sequence HMSKDKEKRTREHVLGILKKYDKVMTDKAFTVFKKMIKDESILEMELIKLINFIGERKEIRSKDVLAVVTE records soluble fraction (log2) of -0.1 or higher.
stdout: 0 (no)

stdin: Test whether the sequence HMLDYITLSPQELGKLLSAGNGDAAMVYLYMKATGDVTLKQAETQLGMTNQNLAWAESLLKRLGLMD records soluble fraction (log2) of -0.1 or higher.
stdout: 0 (no)

stdin: Test whether the sequence HMSNFGALLRMRRLEAGLSYRGLAEQSGLARATLVNLEQGLTKPSPLTMRRLASVKALRLTEL records soluble fraction (log2) of -0.1 or higher.
stdout: 1 (yes)

stdin: Test whether the sequence HMLVLAENMDVIFTRRTLDDHVVVDYKTTIGEMVKNDEIKGENMDELISAVEKDGYELVSSTSGEIIFLND records soluble fraction (log2) of -0.1 or higher.
stdout: 0 (no)

stdin: Test whether the sequence HMHTNNALWAIADDMRARKDDGEFDTYREGYKWAANNIVKEGIHITAIKLEKAYHKAKSEGKV records soluble fraction (log2) of -0.1 or higher.
stdout: 1 (yes)

stdin: Test whether the sequence HMDGMRASDMVRAALAGAGKTQKELAEHMGWTPQNLSGRLKNNSLTFDELSKALHFAGYEVSMSDANGAG records soluble fraction (log2) of -0.1 or higher.
stdout: 0 (no)

stdin: Test whether the sequence HMAPDAPDGFVHRWIRAEMLGQEDKSNVHRRMQEGYELVRADEYPDSDLPVAEGRYAGIIGVGGLLLARF records soluble fraction (log2) of -0.1 or higher.
stdout: 0 (no)

stdin: Test whether the sequence HMSNFGERLRALRQDRQMTLQQASKVTGVAQSTLSKMENNQLSPTFNLMQKLAIGLGIDMPQLFAPVK records soluble fraction (log2) of -0.1 or higher.
stdout: 0 (no)
